Sourced from patent US20130011845A1

We begin with a simple list: items and their reported Represion fold, RIN2.
- Test system: RIN2 3′UTR
- assayOverview: dual-luciferase 3′UTR reporter assay, pAC-RIN2
- Assay type: cell-based
- experimentalSetup: luciferase reporter with RIN2 3′UTR, human Hela cell lines; average of at least two independent experiments

- substance: "5′-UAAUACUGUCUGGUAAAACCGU-3′ (listed as RNA, chemistry not given here) [miR-429]"
  readoutUnit: "fold"
  Represion fold, RIN2: 1.41
- substance: "5′-UAAUACUGCCGGGUAAUGAUGGA-3′ [miR-200c]"
  readoutUnit: "fold"
  Represion fold, RIN2: 1.30
- substance: "5′-UAAUACUGCCUGGUAAUGAUGA-3′ (listed as RNA, chemistry not given here) [miR-200b]"
  readoutUnit: "fold"
  Represion fold, RIN2: 1.91
- substance: "5′-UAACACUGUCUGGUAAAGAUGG-3′ (listed as RNA, chemistry not given here) [miR-141]"
  readoutUnit: "fold"
  Represion fold, RIN2: 1.10
- substance: "5′-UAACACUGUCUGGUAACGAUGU-3′ (listed as RNA, chemistry not given here) [miR-200a]"
  readoutUnit: "fold"
  Represion fold, RIN2: 2.49

---

- Test system: ELMO2 3′UTR
- assayOverview: dual-luciferase 3′UTR reporter assay, pAC-ELMO2
- Type: cell-based
- experimentalSetup: luciferase reporter with ELMO2 3′UTR, human Hela cell lines; average of at least two independent experiments
Values of Represion fold, ELMO2 greater than or equal to 0.9 fold map to 1; values below map to 0.

- substance: "5′-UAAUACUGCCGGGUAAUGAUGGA-3′ [miR-200c]"
  categoryLabel: 0
- substance: "5′-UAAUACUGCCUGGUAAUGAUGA-3′ (listed as RNA, chemistry not given here) [miR-200b]"
  categoryLabel: 1
- substance: "5′-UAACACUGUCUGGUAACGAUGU-3′ (listed as RNA, chemistry not given here) [miR-200a]"
  categoryLabel: 1
- substance: "5′-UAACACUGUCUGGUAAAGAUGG-3′ (listed as RNA, chemistry not given here) [miR-141]"
  categoryLabel: 0

---

We begin with a simple list: items and their reported Represion fold, RASSF2.
- Test system: RASSF2 3′UTR
- assayOverview: dual-luciferase 3′UTR reporter assay, pAC-RASSF2
- Format: cell-based
- experimentalSetup: luciferase reporter with RASSF2 3′UTR, human Hela cell lines; average of at least two independent experiments
measure: Represion fold, RASSF2 (fold)

- substance: "5′-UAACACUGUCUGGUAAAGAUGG-3′ (listed as RNA, chemistry not given here) [miR-141]"
  measure: "Represion fold, RASSF2"
  readoutUnit: "fold"
  recordedValue: 0.90
- substance: "5′-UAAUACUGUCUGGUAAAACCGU-3′ (listed as RNA, chemistry not given here) [miR-429]"
  measure: "Represion fold, RASSF2"
  readoutUnit: "fold"
  recordedValue: 1.01
- substance: "5′-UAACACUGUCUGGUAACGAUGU-3′ (listed as RNA, chemistry not given here) [miR-200a]"
  measure: "Represion fold, RASSF2"
  readoutUnit: "fold"
  recordedValue: 1.36
- substance: "5′-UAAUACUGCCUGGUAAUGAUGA-3′ (listed as RNA, chemistry not given here) [miR-200b]"
  measure: "Represion fold, RASSF2"
  readoutUnit: "fold"
  recordedValue: 1.28
- substance: "5′-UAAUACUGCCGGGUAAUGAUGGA-3′ [miR-200c]"
  measure: "Represion fold, RASSF2"
  readoutUnit: "fold"
  recordedValue: 0.99
